# System: HS 578T breast
# ASSAY_TEXT: NCI-60 one-dose screen, 48 h
# SETUP_CONDITIONS: 10 µM unless noted
This is part of a sample that, as a whole, favours compounds with a hit. Of some 83,000 tested, about 20% had one in any assay. Calls of active or inactive are those of the source. How the source made its calls: active means growth percent below 10; inactive means the rest.
Respond using exactly one of the listed classes: label 1 for active, label 0 for inactive

Please review the following examples before continuing.
COMPOUND | LABEL_CLASS
COc1cc(/C=C/C(=O)c2c(C)oc3nc[nH]c(=O)c23)cc(OC)c1OC | label 0
CCC(=O)c1ccc(Cl)s1 | label 0
O=c1ccccc(-c2ccc(Br)cc2)c1O | label 0
C[n+]1ccccc1/C=C/c1ccc2cccc(O)c2n1 | label 0
Cc1cc(N[C@@H]2CCC[C@H](Nc3ccnc4cc(Cl)ccc34)C2)nc(N2CCCCCC2)n1 | label 1
CCn1c(Cc2ccccc2Nc2c(Cl)cccc2Cl)nnc1SCC(=O)NN1C(=O)/C(=C/c2cc(OC)c(O)c(OC)c2)SC1=S | label 1

query: Give the logged outcome of this assay for the following compound: COc1ccc(/C=C/c2nc3ccccc3nc2/C=C/c2ccc(OC)cc2)cc1
result: label 0

query: # repeat for CN1CCN=C1c1ccc(NC(=O)c2ccc(C(=O)Nc3ccc(C4=NCCN4C)cc3)cc2)cc1
result: label 0
